- Test system: 192522-019-R-J2-PDC complex tumor spheroid viability;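 note: spheroids exposed to drugs for seven days before reading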
- MEASUREMENT_DESCRIPTION: Anticancer human tumor 192522-019-R-J2-PDC patient-derived colon adenocarcinoma cell line growth inhibition [POLQ]
- EXPERIMENTAL_CONDITIONS: curve of first compound; second compound 3.16 µM
PARAMETER: IC50

I have this compound here, CC1COCCN1c1cc(-c2ccnn2C)c2ccnc(-c3ccn[nH]3)c2n1 (stereo not drawn) + COC1C(OC(N)=O)C(O)C(Oc2ccc3c(O)c(NC(=O)c4ccc(O)c(CC=C(C)C)c4)c(=O)oc3c2C)OC1(C)C , and I need its recorded IC50.
304 nM

Repeat for the following compound: Cn1ncnc1[C@H]1c2n[nH]c(=O)c3cc(F)cc(c23)N[C@@H]1c1ccc(F)cc1 + COC1C(OC(N)=O)C(O)C(Oc2ccc3c(O)c(NC(=O)c4ccc(O)c(CC=C(C)C)c4)c(=O)oc3c2C)OC1(C)C
> 100 nM

Repeat for the following compound: Cn1ncnc1[C@H]1c2n[nH]c(=O)c3cc(F)cc(c23)N[C@@H]1c1ccc(F)cc1 + Cc1cccc(N(C)C(=O)C2C(O)CCN2c2nc(C)cc(C(F)(F)F)c2C#N)c1
> 100 nM
